Notes on IC50 obtained with COX-1 (Ovis aries).
Sequence (P05979 25-600): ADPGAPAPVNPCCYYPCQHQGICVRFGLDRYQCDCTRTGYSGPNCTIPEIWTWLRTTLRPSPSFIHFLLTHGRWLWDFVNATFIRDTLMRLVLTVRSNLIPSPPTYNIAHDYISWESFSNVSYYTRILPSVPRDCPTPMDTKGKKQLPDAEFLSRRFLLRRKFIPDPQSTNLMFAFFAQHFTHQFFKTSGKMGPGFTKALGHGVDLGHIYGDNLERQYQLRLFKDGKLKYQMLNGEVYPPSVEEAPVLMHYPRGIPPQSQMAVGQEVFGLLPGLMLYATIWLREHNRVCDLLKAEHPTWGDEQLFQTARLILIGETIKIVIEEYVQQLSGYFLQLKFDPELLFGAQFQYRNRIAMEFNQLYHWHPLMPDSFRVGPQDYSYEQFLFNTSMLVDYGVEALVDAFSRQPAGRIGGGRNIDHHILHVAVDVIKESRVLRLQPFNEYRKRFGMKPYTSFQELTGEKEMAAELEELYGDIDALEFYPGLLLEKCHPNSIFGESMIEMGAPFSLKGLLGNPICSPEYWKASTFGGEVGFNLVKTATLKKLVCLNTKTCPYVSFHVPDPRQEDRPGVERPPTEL

| Compound | IC50 |
| --- | --- |
| CC(C)=CCCC(C)=Cc1ccc(O)cc1 (mixture of isomers) [Compound 1] | 122 µM |
| CC(C)=CCCC(C)/C=C/c1ccc(O)cc1O (centres unmarked) [Compound 6] | 74 µM |
| CC(C)=CCCC(C)/C=C/c1cc(O)cc(O)c1 (centres unmarked) [Compound 7] | 25 µM |
| CC(C)=CCCC(C)C/C=C\c1cc(O)cc(O)c1 (centres unmarked) [Compound 15] | 122 µM |
| CC(C)=CCC/C(C)=C/c1cc(O)cc(O)c1 [Compound 4] | 64 µM |
